Where a name gives a salt, the structure may show the parent alone.
melting point values, listed per item

Example entries begin here.
# molecule, result
records = [
    ("CS(=O)(=O)NCCC1(CN)CCCCC1.Cl", "196 to 199 °C"),
    ("CCCC(C(C)C)C(CN)CC(=O)O (stereo not shown) (as salt: HCl)", "160 to 170 °C"),
    ("CC(C)CC(CN)Cc1noc(=S)[nH]1.Cl (stereo not shown)", "183 to 185 °C"),
]

# evaluate next
Input: Returns the measured melting point for the input molecule. Input: "Cl.NCC1(Cc2noc(=S)[nH]2)CCCCC1"
Output: 210 to 212 °C
